Provenance of the data: patent US7728040B1

Test system: L1210 cells + DFMO
Assay: Cytotoxicity in L1210 cells pretreated with DFMO
Format: cell-based, mouse
Conditions: fold more toxic in the presence of DFMO
METRIC NAME: L1210/(L1210 + DFMO) IC50 ratio

>  <MOLECULE>
Cl.Cl.Cl.Cl.NCCCCCN(CCCCNCCCCN)Cc1c2ccccc2cc2ccccc12 [Compound 13h]

>  <METRIC NAME>
L1210/(L1210 + DFMO) IC50 ratio

>  <RECORDED NUMBER>
1.9

$$$$
>  <MOLECULE>
Cl.Cl.Cl.NCCCCN(CCCN)Cc1c2ccccc2cc2ccccc12

>  <METRIC NAME>
L1210/(L1210 + DFMO) IC50 ratio

>  <RECORDED NUMBER>
2

$$$$
>  <MOLECULE>
Cl.Cl.NCCCCCCCCNCc1c2ccccc2cc2ccccc12

>  <METRIC NAME>
L1210/(L1210 + DFMO) IC50 ratio

>  <RECORDED NUMBER>
0.7

$$$$
>  <MOLECULE>
Cl.Cl.Cl.Cl.NCCCCN(CCCCNCCCN)Cc1c2ccccc2cc2ccccc12 [Compound 13e]

>  <METRIC NAME>
L1210/(L1210 + DFMO) IC50 ratio

>  <RECORDED NUMBER>
7.2

$$$$
>  <MOLECULE>
NCCCCNCCCNCCCNCc1c2ccccc2cc2ccccc12 [Compound 13a]

>  <METRIC NAME>
L1210/(L1210 + DFMO) IC50 ratio

>  <RECORDED NUMBER>
1

$$$$
>  <MOLECULE>
Cl.Cl.Cl.NCC(O)CNCCCCNCc1c2ccccc2cc2ccccc12 (stereo not drawn)

>  <METRIC NAME>
L1210/(L1210 + DFMO) IC50 ratio

>  <RECORDED NUMBER>
0.7

$$$$
>  <MOLECULE>
Cl.Cl.Cl.Cl.NCCCCNCCCCN(CCCCN)Cc1c2ccccc2cc2ccccc12 [Compound 13f]

>  <METRIC NAME>
L1210/(L1210 + DFMO) IC50 ratio

>  <RECORDED NUMBER>
4.7

$$$$
>  <MOLECULE>
Cl.Cl.NCCOCCOCCNCc1c2ccccc2cc2ccccc12

>  <METRIC NAME>
L1210/(L1210 + DFMO) IC50 ratio

>  <RECORDED NUMBER>
0.7

$$$$
>  <MOLECULE>
Cl.Cl.Cl.NCCCCCN(CCCN)Cc1c2ccccc2cc2ccccc12

>  <METRIC NAME>
L1210/(L1210 + DFMO) IC50 ratio

>  <RECORDED NUMBER>
1.9

$$$$

---

Test system: L1210 cells + DFMO
Experiment: Cytotoxicity in L1210 cells pretreated with DFMO
Type: cell-based, mouse
Details: fold more toxic in the presence of DFMO
Reported L1210/(L1210 + DFMO) IC50 ratio values for the following compounds.

>  <COMPOUND>
Cl.Cl.Cl.Cl.NCCCCCN(CCCCNCCCN)Cc1c2ccccc2cc2ccccc12 [Compound 13g]

>  <MEASURED TARGET>
L1210 cells + DFMO

>  <L1210/(L1210 + DFMO) IC50 ratio>
3

$$$$
>  <COMPOUND>
Cl.Cl.Cl.NCCCCNCCCCNCc1ccccc1 [Compound 27a]

>  <MEASURED TARGET>
L1210 cells + DFMO

>  <L1210/(L1210 + DFMO) IC50 ratio>
0.1

$$$$
>  <COMPOUND>
Cl.Cl.Cl.Cl.NCCCCCN(CCCCCNCCCCN)Cc1c2ccccc2cc2ccccc12 [Compound 13i]

>  <MEASURED TARGET>
L1210 cells + DFMO

>  <L1210/(L1210 + DFMO) IC50 ratio>
1.7

$$$$

---

Tested on: CHO cells
Experiment: Cytotoxicity in CHO cells (active polyamine transporter)
Assay type: cell-based, Chinese hamster
Conditions: selectivity for cells with active polyamine transporter
Counter-ions that a name gives are not always drawn.
Lab note: compare CHO-MG/CHO IC50 ratio with 2, writing true if less and false if equal or more.

>  <MOLECULE>
Cl.Cl.Cl.NCCCN(CCCN)Cc1c2ccccc2cc2ccccc12

>  <CLASS ASSIGNMENT>
true

$$$$
>  <MOLECULE>
NCCCCNCCCNCCCNCc1c2ccccc2cc2ccccc12 [Compound 13a]

>  <CLASS ASSIGNMENT>
true

$$$$
>  <MOLECULE>
Cl.Cl.NCCCCCCCCNCc1c2ccccc2cc2ccccc12

>  <CLASS ASSIGNMENT>
true

$$$$
>  <MOLECULE>
Cl.Cl.Cl.NCCCCCN(CCCCN)Cc1c2ccccc2cc2ccccc12

>  <CLASS ASSIGNMENT>
false

$$$$
>  <MOLECULE>
CCCCNCc1c2ccccc2cc2ccccc12 [Compound 35, Monohydrochloride]

>  <CLASS ASSIGNMENT>
true

$$$$
>  <MOLECULE>
Cl.Cl.Cl.Cl.NCCCCCN(CCCCCNCCCCN)Cc1c2ccccc2cc2ccccc12 [Compound 13i]

>  <CLASS ASSIGNMENT>
true

$$$$
>  <MOLECULE>
Cl.Cl.Cl.Cl.NCCCCCN(CCCCNCCCN)Cc1c2ccccc2cc2ccccc12 [Compound 13g]

>  <CLASS ASSIGNMENT>
true

$$$$
>  <MOLECULE>
Cl.Cl.Cl.NC1CCC(NCCCCNCc2c3ccccc3cc3ccccc23)CC1 (stereo not drawn)

>  <CLASS ASSIGNMENT>
false

$$$$
>  <MOLECULE>
Cl.Cl.Cl.NCCCCN(CCCN)Cc1c2ccccc2cc2ccccc12

>  <CLASS ASSIGNMENT>
false

$$$$
>  <MOLECULE>
Cl.Cl.Cl.NCCCCNCCCCNCc1ccc2ccc3cccc4ccc1c2c34 [Compound 27d]

>  <CLASS ASSIGNMENT>
false

$$$$
>  <MOLECULE>
Cl.Cl.NCCOCCOCCNCc1c2ccccc2cc2ccccc12

>  <CLASS ASSIGNMENT>
true

$$$$
>  <MOLECULE>
Cl.Cl.Cl.NCC(O)CNCCCCNCc1c2ccccc2cc2ccccc12 (stereo not drawn)

>  <CLASS ASSIGNMENT>
true

$$$$
